TARGET_ENTITY: VLA-4 (α4β1 integrin) binding to immobilized VCAM-1 (Homo sapiens, UniProt P05556+P13612)
Construct: followed by 10 μl of Ramos cell-derived VLA-4; endogenous in cells; host or cells: Ramos cells (VLA-4 preparation derived from the cells)
Sequence (P13612 34-1032): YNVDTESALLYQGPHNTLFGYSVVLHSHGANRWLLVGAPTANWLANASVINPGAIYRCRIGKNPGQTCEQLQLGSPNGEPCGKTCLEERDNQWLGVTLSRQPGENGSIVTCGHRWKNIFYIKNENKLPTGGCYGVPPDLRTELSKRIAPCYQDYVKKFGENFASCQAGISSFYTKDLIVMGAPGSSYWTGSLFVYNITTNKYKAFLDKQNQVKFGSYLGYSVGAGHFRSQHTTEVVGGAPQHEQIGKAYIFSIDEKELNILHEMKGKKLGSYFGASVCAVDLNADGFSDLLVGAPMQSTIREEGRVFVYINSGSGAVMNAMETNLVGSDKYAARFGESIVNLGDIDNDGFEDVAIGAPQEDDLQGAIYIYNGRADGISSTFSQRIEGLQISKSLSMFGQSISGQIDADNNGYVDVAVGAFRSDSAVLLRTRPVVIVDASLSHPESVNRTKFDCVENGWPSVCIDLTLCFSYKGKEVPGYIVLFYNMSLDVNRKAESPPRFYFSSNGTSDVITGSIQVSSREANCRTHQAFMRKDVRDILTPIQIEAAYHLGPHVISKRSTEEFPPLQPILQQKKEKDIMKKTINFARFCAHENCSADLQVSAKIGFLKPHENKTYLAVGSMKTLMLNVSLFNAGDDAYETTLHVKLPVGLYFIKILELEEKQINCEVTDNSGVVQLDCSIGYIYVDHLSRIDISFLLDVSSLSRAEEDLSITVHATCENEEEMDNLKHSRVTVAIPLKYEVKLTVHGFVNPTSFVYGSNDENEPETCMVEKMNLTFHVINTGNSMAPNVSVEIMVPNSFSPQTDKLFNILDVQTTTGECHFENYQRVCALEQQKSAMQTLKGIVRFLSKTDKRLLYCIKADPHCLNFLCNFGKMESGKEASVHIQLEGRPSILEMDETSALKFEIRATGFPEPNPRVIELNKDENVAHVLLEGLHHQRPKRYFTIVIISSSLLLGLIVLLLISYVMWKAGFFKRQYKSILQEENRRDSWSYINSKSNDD
Sequence (P05556 21-798): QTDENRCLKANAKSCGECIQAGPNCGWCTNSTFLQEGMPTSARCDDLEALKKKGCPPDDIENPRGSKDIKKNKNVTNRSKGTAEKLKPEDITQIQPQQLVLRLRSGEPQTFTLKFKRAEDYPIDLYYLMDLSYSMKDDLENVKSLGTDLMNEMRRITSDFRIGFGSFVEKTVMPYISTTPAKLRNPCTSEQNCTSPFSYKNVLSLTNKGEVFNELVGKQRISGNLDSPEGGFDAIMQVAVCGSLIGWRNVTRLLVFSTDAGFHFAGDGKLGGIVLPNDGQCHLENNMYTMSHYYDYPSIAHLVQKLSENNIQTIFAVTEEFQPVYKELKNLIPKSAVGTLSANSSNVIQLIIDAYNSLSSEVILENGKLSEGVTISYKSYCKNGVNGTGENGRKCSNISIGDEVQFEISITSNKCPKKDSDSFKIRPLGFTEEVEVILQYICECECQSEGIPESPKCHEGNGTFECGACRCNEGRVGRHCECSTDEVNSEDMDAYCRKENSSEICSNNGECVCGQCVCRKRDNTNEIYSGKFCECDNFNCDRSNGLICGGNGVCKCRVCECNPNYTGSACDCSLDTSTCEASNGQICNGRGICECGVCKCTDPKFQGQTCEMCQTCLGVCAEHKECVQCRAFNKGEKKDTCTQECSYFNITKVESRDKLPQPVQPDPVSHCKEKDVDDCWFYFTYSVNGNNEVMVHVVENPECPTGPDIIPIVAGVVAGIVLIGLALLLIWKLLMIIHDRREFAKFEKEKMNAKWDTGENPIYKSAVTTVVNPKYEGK
ASSAY_REMARKS: VLA-4/VCAM-1 Screening Assay (solid-phase, dual antibody ELISA)
APPLIED_CONDITIONS: Ramos cell-derived VLA-4, recombinant human VCAM-1 coated plates, 2 hr at 37° C.; read-out: IC50
TEST_READOUT: IC50 (nM)

(I) COc1ccc(C2(C(=O)NC(Cc3ccc(NC(=O)C(Cc4ccc(O)cc4)NC(C)=O)cc3)C(=O)O)CCCCC2)cc1 (stereo not drawn)
(II) COCCC1(C(=O)NC(Cc2ccc(N3C(=O)C(CC(C)C)N(C(C)=O)C3c3ccc(OC)cc3)cc2)C(=O)O)CCCC1 (single isomer, unassigned) [Example 136]
(III) O=C(Nc1ccc(C[C@H](NC(=O)C2(c3ccccc3)CCCCC2)C(=O)O)cc1)c1ccnc2ccccc12
Please give the order of these compounds when sorted by IC50, largest value leading. Form entry: labels listed in requested order.
I, III, II
